Target: RARb:RXRa (Homo sapiens, UniProt P10826;P19793 full;full)
Sequence (P10826 whole entry, chain 1 of 2): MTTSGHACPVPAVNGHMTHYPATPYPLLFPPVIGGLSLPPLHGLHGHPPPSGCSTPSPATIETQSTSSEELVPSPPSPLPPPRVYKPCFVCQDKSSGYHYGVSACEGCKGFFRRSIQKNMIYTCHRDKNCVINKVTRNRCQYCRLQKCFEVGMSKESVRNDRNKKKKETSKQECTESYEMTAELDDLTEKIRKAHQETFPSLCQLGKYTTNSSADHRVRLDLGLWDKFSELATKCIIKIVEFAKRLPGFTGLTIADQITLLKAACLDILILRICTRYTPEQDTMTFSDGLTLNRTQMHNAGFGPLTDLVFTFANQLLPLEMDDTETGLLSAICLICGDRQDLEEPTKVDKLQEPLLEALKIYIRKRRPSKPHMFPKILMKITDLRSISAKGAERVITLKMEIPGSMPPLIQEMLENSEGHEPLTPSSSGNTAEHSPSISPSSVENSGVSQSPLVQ
Sequence (P19793 whole entry, chain 2 of 2): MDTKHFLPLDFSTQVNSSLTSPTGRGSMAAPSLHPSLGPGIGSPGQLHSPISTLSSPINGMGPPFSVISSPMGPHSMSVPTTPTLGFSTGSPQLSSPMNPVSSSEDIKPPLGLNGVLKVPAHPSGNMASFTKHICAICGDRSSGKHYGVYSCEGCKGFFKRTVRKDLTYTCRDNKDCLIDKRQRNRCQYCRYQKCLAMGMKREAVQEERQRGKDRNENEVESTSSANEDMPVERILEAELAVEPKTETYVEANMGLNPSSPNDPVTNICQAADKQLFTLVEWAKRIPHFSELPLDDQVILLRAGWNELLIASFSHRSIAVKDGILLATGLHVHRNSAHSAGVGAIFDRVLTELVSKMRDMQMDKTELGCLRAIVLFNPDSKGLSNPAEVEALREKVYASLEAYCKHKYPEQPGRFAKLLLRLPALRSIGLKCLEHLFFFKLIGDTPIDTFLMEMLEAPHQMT
Assay: no ligand; PBM; 270 nM : 90 nM RXRa; PBS pH 7.4, 2% milk, 0.02% Triton X-100, 1 mM DTT, BSA, 0.4 mg/ml salmon testes DNA
Conditions: tags: His kept;His cleaved; copies: 1;1; label: surface-attached array probe
OUTCOME_MEASURE: binding signal

Recorded binding signal of NRC3_wobSeed53_DR2_C8A_o1 (dsDNA) DNA 1: GCCCTTAAGGGTCACGAGGTTATAGCACGACGAGCGGCGATTGACAGCGTAGAATGAAGG DNA 2: CCTTCATTCTACGCTGTCAATCGCCGCTCGTCGTGCTATAACCTCGTGACCCTTAAGGGC , please. 6 PBM z-score against 500 random probes
